# Target entity: wild type transthyretin (WT-TTR) (Homo sapiens)
# Construct: made in house; host or cells: E. coli BL21 (DE3), pET23a plasmid
# Assay notes: WT-TTR amyloid fibril formation assay (turbidimetry, acid-induced)
# Format: biochemical
# Condition: WT-TTR fixed at 3.6 μM, ten compound concentrations, pH 4.4, 72 hours
Observed property: IC50 (µM)

# count of solved cases: 6
IC50 reported for this compound O=C(O)CCN1C(=O)/C(=C/c2cc(Cl)c(O)c(Cl)c2)SC1=S [AT50-C15] : 1.03

The measured IC50 associated with O=C(O)CN1C(=O)/C(=C/c2cc(Cl)c(O)c(Cl)c2)SC1=S [AT50-A03] reads 1.17

So, O=C(O)CCN1C(=O)/C(=C/c2cc(F)c(O)c(F)c2)SC1=S [AT50-C13] ? Its IC50 was 2.31

Note to self: IC50 recorded for COc1cc(/C=C2\SC(=S)N(CC(=O)O)C2=O)cc(Cl)c1O [AT50-A00 (Z)] was 1.77

The compound listed as O=C(O)CCCN1C(=O)/C(=C/c2cc(F)c(O)c(F)c2)SC1=S [AT50-C09] has a reported IC50 of 2.45

For reference, reported IC50 for Cc1cc(/C=C2\SC(=S)N(CCCC(=O)O)C2=O)cc(C)c1O [AT50-C11] stands at 2.43

[A] O=C(O)CCCN1C(=O)/C(=C/c2cc(Cl)c(O)c(Cl)c2)SC1=S [AT50-C10]
[B] O=C(O)CN1C(=O)/C(=C/c2cc(F)cc(F)c2)SC1=S [AT50-A12]
[C] COc1cc(/C=C2\SC(=S)N([C@H](CC(C)C)C(=O)O)C2=O)cc(OC)c1O [AT50-B01]
Query block: Rank the items in ascending order with respect to IC50. Write the labels in rank order as requested.
Result block: C, A, B
(C: 0.95 µM, A: 1.87 µM, B: 2.88 µM)

[P] Cc1cc(/C=C2\SC(=S)N(CCC(=O)O)C2=O)cc(C)c1O [AT50-C16]
[Q] O=C(O)CN1C(=O)/C(=C/c2cc(O)c(O)c(Cl)c2)SC1=S [AT50-A01]
Query block: Given the listed records, identify the one among P and Q with higher IC50. Provide the label of your selected option as the answer.
Result block: P

----------
# Target entity: Val122Ile transthyretin (V122I-TTR) (Homo sapiens, UniProt P02766, V142I)
# Assay notes: V122I-TTR amyloid fibril formation assay (turbidimetry, acid-induced)
# Type: biochemical
# Condition: V122I-TTR 3.6 μM, pH 4.4, 72 hours, 37° C.
Observed property: Fibril Formation (%)

Examples with their reported Fibril Formation (%) follow.
// field: Fibril Formation (%); key: O=C(O)CCCN1C(=O)/C(=C/c2cc(F)c(O)c(F)c2)SC1=S [AT50-C09] ; value = 48

The compound O=C(O)c1ccc2nc(-c3cc(Cl)cc(Cl)c3)oc2c1 [Tafamidis, reference compound] showed Fibril Formation (%) equal to 49

// field: Fibril Formation (%); key: O=C(O)CCN1C(=O)/C(=C/c2cc(Cl)cc(Cl)c2)SC1=S [AT50-C14] ; value = 55

Per the records, this compound ( O=C(O)CCCN1C(=O)/C(=C/c2cc(Cl)c(O)c(Cl)c2)SC1=S [AT50-C10] ) has Fibril Formation (%) equal to 37

# Fibril Formation (%) of Cc1cc(/C=C2\SC(=S)N(CC(=O)O)C2=O)cc(C)c1O [AT50-A17] = 51

[a] O=C(O)CC[C@@H](C(=O)O)N1C(=O)/C(=C/c2ccc(O)c(Br)c2)SC1=S [AT50-C01]
[b] Cc1cc(/C=C2\SC(=S)N(CCCC(=O)O)C2=O)cc(C)c1O [AT50-C11]
[c] O=C(O)CN1C(=O)/C(=C/c2cc(Cl)c(O)c(Cl)c2)SC1=S [AT50-A03]
Query block: Number of compounds to sort: 3. Sort criterion: Fibril Formation (%), ascending. Labels, requested order.
Result block: c, a, b
(c: 19%, a: 39%, b: 66%)

[A] O=C(O)CN1C(=O)/C(=C/c2cc(Cl)cc(Cl)c2)SC1=S [AT50-A05]
[B] O=C(O)CN1C(=O)/C(=C/c2cc(F)cc(F)c2)SC1=S [AT50-A12]
Query block: Compare A and B and name the one whose reported Fibril Formation (%) is smaller. Please respond with the label that marks your chosen entry.
Result block: A

[A] Cc1cc(/C=C2\SC(=S)N(CCC(=O)O)C2=O)cc(C)c1O [AT50-C16]
[B] COc1cc(/C=C2\SC(=S)N([C@H](CC(C)C)C(=O)O)C2=O)cc(OC)c1O [AT50-B01]
Query block: // task: argmin of Fibril Formation (%) over [ A , B ] Please respond with the label that marks your chosen entry.
Result block: B

----------
Each entry below lists one item and its recorded IC50 at 72 h value.
# Assay notes: HepG2 cell viability, resazurin reduction assay
# Type: cell-based
# Condition: human, HepG2 hepatoma cells, approximately 72 hours incubation, read-out: inhibitory dose (ID50), cell viability

These solved cases illustrate the format of a correct answer.
Reported IC50 at 72 h ( COc1cc(/C=C2\SC(=S)N(CC(=O)O)C2=O)cc(Cl)c1O [AT50-A00 (Z)] ) = > 400 µM

Field IC50 at 72 h (entry O=C(O)c1ccc2nc(-c3cc(Cl)cc(Cl)c3)oc2c1 [Tafamidis, reference compound] ) reads ~250 µM

Item: O=C(O)CN1C(=O)/C(=C/c2cc(Cl)c(O)c(Cl)c2)SC1=S | IC50 at 72 h: > 400 µM

Please find the next compound below.
O=C(O)CN1C(=O)/C(=C/c2cc(F)c(O)c(F)c2)SC1=S yielded IC50 at 72 h of > 400 µM

----------
# Target entity: wild type transthyretin (WT-TTR) (Homo sapiens, UniProt P02766)
# Construct: made in house; host or cells: E. coli BL21 (DE3), pET23a plasmid
# Assay notes: WT-TTR amyloid fibril formation assay (turbidimetry, acid-induced)
# Type: biochemical
# Condition: WT-TTR 3.6 μM, 1:1 TTR-compound stoichiometry, pH 4.4, 72 hours, 37° C., normalized to no-compound control (100%)
Observed property: Fibril Formation (%)

Examples from the recorded data:
Summary for this compound, COc1cc(/C=C2\SC(=S)N(CCC(=O)O)C2=O)cc(C)c1O : Fibril Formation (%) is 30

Value of measured Fibril Formation (%) for the entry O=C(O)c1ccc2nc(-c3cc(Cl)cc(Cl)c3)oc2c1 [Tafamidis, reference compound] : 43

Reported Fibril Formation (%) ( O=C(O)CN1C(=O)/C(=C/c2cc(Cl)cc(Cl)c2)SC1=S ) = 17

Field Fibril Formation (%) (entry Oc1c(Cl)cc(-c2cc(Cl)c(O)c(Cl)c2)cc1Cl [2OH- PCB80, reference compound] ) reads 20

Given item O=C(O)CCCN1C(=O)/C(=C/c2cc(Cl)c(O)c(Cl)c2)SC1=S , the value recorded as its Fibril Formation (%) is 27

[A] COc1cc(/C=C2\SC(=S)N([C@H](CC(C)C)C(=O)O)C2=O)cc(OC)c1O
[B] NC(Cc1cc(I)c(Oc2cc(I)c(O)c(I)c2)c(I)c1)C(=O)O (stereo in doubt) [Thyroxine, reference compound]
Query block: When A and B are compared, which has the higher number for Fibril Formation (%)? # answer = label of selected item
Result block: B

----------
# Target entity: Val122Ile transthyretin (V122I-TTR) (Homo sapiens, UniProt P02766, V142I)
# Assay notes: V122I-TTR amyloid fibril formation assay (turbidimetry, acid-induced)
# Format: biochemical
# Condition: V122I-TTR fixed at 3.6 μM, ten compound concentrations, pH 4.4, 72 hours
pIC50: −log10 of the molar value.
Observed property: pIC50

The compound listed as O=C(O)CN1C(=O)/C(=C/c2cc(Cl)c(O)c(Cl)c2)SC1=S [AT50-A03] shows pIC50 equal to 5.79

pIC50 reported for this compound O=C(O)CCN1C(=O)/C(=C/c2cc(F)c(O)c(F)c2)SC1=S [AT50-C13] : 5.59

So for O=C(O)CCCN1C(=O)/C(=C/c2cc(Cl)c(O)c(Cl)c2)SC1=S [AT50-C10] , the logged pIC50 turned out to be 5.61

Documented pIC50 of O=C(O)CN1C(=O)/C(=C/c2cc(Cl)cc(Cl)c2)SC1=S [AT50-A05] : 5.63

Lab book: pIC50 of COc1cc(/C=C2/SC(=S)N(CC(=O)O)C2=O)cc(Cl)c1O [AT50-A00 (E)] noted as 5.51

[P] O=C(O)CC[C@@H](C(=O)O)N1C(=O)/C(=C/c2ccc(O)c(Br)c2)SC1=S [AT50-C01]
[Q] Cc1cc(/C=C2\SC(=S)N(CCCC(=O)O)C2=O)cc(C)c1O [AT50-C11]
Query block: Record comparison, field pIC50: mark the lower of P and Q . Lab note: record the label of whichever item you select.
Result block: Q

# credit: patent US11584727B2
